PROTOCOL_DETAILS: Protein binding in rat plasma
Format: ADME, cell-free
DETAILS: read-out: PPB
VALUE_TYPE: fraction unbound

| MOL | VALUE_TYPE | RECORDED_RESULT |
| --- | --- | --- |
| Cc1cc(Nc2cc(N)ncn2)c(=O)n2c1C(=O)NC21CCCCC1 | fraction unbound | 0.5 |

---

PROTOCOL_DETAILS: Antiproliferative activity against human MCL cells after 72 hrs by CellTiter-Glo assay
Format: functional, cell-based

| MOLECULE | IC50 |
| --- | --- |
| Cc1cc(Nc2cc(N)ncn2)c(=O)n2c1C(=O)NC21CCCCC1 [TOMIVOSERTIB] | > 30 µM |

---

TARGET_ENTITY: Vascular endothelial growth factor receptor 2 (Homo sapiens) (UniProt P35968)
Sequence (P35968 whole entry): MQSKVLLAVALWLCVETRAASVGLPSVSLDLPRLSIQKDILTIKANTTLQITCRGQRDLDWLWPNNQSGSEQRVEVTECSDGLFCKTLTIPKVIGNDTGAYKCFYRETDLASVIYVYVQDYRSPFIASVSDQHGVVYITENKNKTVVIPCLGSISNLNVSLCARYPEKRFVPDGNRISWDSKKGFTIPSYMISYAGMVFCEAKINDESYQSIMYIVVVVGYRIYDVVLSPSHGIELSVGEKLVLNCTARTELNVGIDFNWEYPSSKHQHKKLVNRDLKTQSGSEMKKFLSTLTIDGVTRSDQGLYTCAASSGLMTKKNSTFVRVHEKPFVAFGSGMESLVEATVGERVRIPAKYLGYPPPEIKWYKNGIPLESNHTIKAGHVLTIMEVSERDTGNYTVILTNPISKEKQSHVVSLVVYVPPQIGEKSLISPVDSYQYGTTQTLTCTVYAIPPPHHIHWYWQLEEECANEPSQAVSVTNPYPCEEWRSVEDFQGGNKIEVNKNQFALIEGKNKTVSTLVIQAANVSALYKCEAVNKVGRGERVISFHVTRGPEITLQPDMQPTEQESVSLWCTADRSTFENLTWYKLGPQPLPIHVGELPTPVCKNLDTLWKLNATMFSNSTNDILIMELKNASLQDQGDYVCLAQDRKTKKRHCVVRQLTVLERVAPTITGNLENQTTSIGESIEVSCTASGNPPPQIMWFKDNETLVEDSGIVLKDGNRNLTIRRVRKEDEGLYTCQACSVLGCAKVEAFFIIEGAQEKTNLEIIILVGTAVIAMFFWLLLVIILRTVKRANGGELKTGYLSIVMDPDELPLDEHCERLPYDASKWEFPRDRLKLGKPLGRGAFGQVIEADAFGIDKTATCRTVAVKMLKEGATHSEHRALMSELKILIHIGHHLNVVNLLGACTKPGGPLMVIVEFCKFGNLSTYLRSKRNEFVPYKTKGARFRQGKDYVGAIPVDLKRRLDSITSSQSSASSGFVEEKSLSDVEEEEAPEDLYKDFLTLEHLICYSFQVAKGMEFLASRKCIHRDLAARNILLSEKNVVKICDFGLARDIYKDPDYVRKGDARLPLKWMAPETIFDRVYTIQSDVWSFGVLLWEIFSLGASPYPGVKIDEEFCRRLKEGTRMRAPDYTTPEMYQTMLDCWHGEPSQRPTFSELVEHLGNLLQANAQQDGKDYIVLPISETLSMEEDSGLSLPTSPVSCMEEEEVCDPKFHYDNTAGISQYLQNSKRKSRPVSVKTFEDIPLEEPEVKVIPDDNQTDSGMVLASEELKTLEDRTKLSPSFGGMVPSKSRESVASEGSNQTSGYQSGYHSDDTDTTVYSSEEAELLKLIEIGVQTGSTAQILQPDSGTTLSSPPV
PROTOCOL_DETAILS: Inhibition of KDR (unknown origin) at 1 uM relative to control
Label Condition met when inhibition >= 20%; otherwise Condition not met.

| MOLECULE | ANSWER_LABEL |
| --- | --- |
| CC1(c2cccc(Cl)c2)NC(=O)c2c(Cl)cc(Nc3cc(NC(=O)C4CC4)ncn3)c(=O)n21 (stereo unspecified) | Condition not met |
| Nc1cc(Nc2cc(Cl)c3n(c2=O)C2(CCCCC2)NC3=O)ncn1 | Condition met |
| CC1(C)NC(=O)c2c(Cl)cc(Nc3cc(N)ncn3)c(=O)n21 | Condition met |
| CC1(C)NC(=O)c2ccc(Nc3cc(NC(=O)C4CC4)ncn3)c(=O)n21 | Condition not met |
| N[C@H]1C[C@H](Oc2ccc3ncc(-c4ccc5cnccc5c4)n3n2)C1 | Condition not met |
| Nc1cc(Nc2cc(Cl)c3n(c2=O)C2(CCCC2)NC3=O)ncn1 | Condition met |

---

PROTOCOL_DETAILS: Metabolic stability in human liver microsomes assessed as parent compound remaining at 1 uM after 30 mins by LC-ESI-TOF/MS method
Format: ADME, microsome
DETAILS: read-out: Stability
Catalogue of remaining at 0.5 h, 1 µM values
VALUE_TYPE: remaining at 0.5 h, 1 µM (%)

| COMPOUND | MEASUREMENT_UNITS | RECORDED_RESULT |
| --- | --- | --- |
| Nc1cc(Nc2cc(Cl)c3n(c2=O)C2(CCCC2)NC3=O)ncn1 | % | 85 |
| Cc1cc(Nc2cc(N)ncn2)c(=O)n2c1C(=O)NC21CCC(F)(F)CC1 | % | 97 |
| Cc1cc(Nc2cc(N)ncn2)c(=O)n2c1C(=O)NC21CCCCC1 [TOMIVOSERTIB] | % | 87 |
| CC1(C)NC(=O)c2c(Cl)cc(Nc3cc(N)ncn3)c(=O)n21 | % | 100 |
| Nc1cc(Nc2cc(Cl)c3n(c2=O)C2(CCCCC2)NC3=O)ncn1 | % | 89 |

---

System: PC-3
PROTOCOL_DETAILS: Antiproliferative activity against human PC3 cells after 72 hrs by CellTiter-Glo assay
Assay type: functional, cell-based
DETAILS: PC-3, 72 h
Catalogue of EC50 values
VALUE_TYPE: EC50 (nM)

| MOL | VALUE_TYPE | MEASUREMENT_UNITS | LIMIT_QUALIFIER | RECORDED_RESULT |
| --- | --- | --- | --- | --- |
| N[C@H]1C[C@H](Oc2ccc3ncc(-c4ccc5cnccc5c4)n3n2)C1 | EC50 | nM | = | 590 |
| CC1(C)NC(=O)c2ccc(Nc3cc(NC(=O)C4CC4)ncn3)c(=O)n21 | EC50 | nM | > | 30000 |
